These measurements were taken from patent US10336697B2.

Documented pIC50 across a set of compounds
# ASSAY_TARGET: Bet BRD4 full length bromo-domain protein (Homo sapiens, UniProt O60885)
# ASSAY_COMMENT: Bet bromodomain TR-FRET assay (displacement of acetyl histone peptide)
# Assay type: binding
# REPORTED_CONDITIONS: Bet BRD4 full length bromodomain protein, 300 nM acetyl histone peptide substrate, read-out: IC50
pIC50: −log10 of the molar value.

{"COMPOUND": "CN1CCC(Oc2cc(NC(=O)c3ccc(Cl)cc3F)cc3c2NC(=O)C32CCC2)CC1", "ASSAY_TARGET": "Bet BRD4 full length bromo-domain protein (Homo sapiens, UniProt O60885)", "MEASURED_VALUE": "< 6.00"}
{"COMPOUND": "CN1CCC(Oc2cc(NS(=O)(=O)c3ccccc3Cl)cc3c2NC(=O)C32CCC2)CC1", "ASSAY_TARGET": "Bet BRD4 full length bromo-domain protein (Homo sapiens, UniProt O60885)", "MEASURED_VALUE": "> 6.22"}
{"COMPOUND": "O=C1CC(c2cc(NS(=O)(=O)c3ccc(F)cc3F)cc3c2NC(=O)C32CCC2)CCN1 (stereo not drawn)", "ASSAY_TARGET": "Bet BRD4 full length bromo-domain protein (Homo sapiens, UniProt O60885)", "MEASURED_VALUE": "> 6.22"}
{"COMPOUND": "CN1CCC(Oc2cc(N(C)S(=O)(=O)c3ccc(F)cc3F)cc3c2NC(=O)C32CCC2)CC1", "ASSAY_TARGET": "Bet BRD4 full length bromo-domain protein (Homo sapiens, UniProt O60885)", "MEASURED_VALUE": "> 6.22"}
{"COMPOUND": "CN1CCc2ccc(-c3cc(NS(=O)(=O)c4ccc(F)cc4F)cc4c3NC(=O)C43CCC3)cc2C1", "ASSAY_TARGET": "Bet BRD4 full length bromo-domain protein (Homo sapiens, UniProt O60885)", "MEASURED_VALUE": "> 6.22"}
{"COMPOUND": "O=C(NC1CCCNC1)c1cc(NS(=O)(=O)c2ccc(F)cc2F)cc2c1NC(=O)C21CCC1 (single isomer, unassigned) [Compound 68]", "ASSAY_TARGET": "Bet BRD4 full length bromo-domain protein (Homo sapiens, UniProt O60885)", "MEASURED_VALUE": "> 6.22"}
{"COMPOUND": "CN1CCC(Oc2cc(NC(=O)/C=C/c3ccccc3)cc3c2NC(=O)C32CCC2)CC1", "ASSAY_TARGET": "Bet BRD4 full length bromo-domain protein (Homo sapiens, UniProt O60885)", "MEASURED_VALUE": "> 6.22"}
{"COMPOUND": "CCN1CCC(NC(=O)c2cc(NS(=O)(=O)c3ccc(F)cc3F)cc3c2NC(=O)C32CCC2)CC1", "ASSAY_TARGET": "Bet BRD4 full length bromo-domain protein (Homo sapiens, UniProt O60885)", "MEASURED_VALUE": "> 6.22"}

-- ask # return recorded pIC50 for input CC1CC(Oc2cc(NS(=O)(=O)c3ccc(Cl)cc3F)cc3c2NC(=O)C32CCC2)CC(C)N1 (stereo not drawn)
-- reply > 6.22

-- ask # return recorded pIC50 for input `COc1ccc(S(=O)(=O)Nc2cc(C3CCNCC3)c3c(c2)C2(CCC2)C(=O)N3)c(OC)c1`
-- reply > 6.22

-- ask # return recorded pIC50 for input `CNCCOc1cc(NS(=O)(=O)c2ccccc2OC)cc2c1NC(=O)C21CCC1`
-- reply > 6.22

-- ask # return recorded pIC50 for input `CN1CCC(Oc2cc(NS(=O)(=O)c3ccc(F)cc3Cl)cc3c2NC(=O)C32CCC2)CC1`
-- reply > 6.22
